Test system: panel of 55 breast cancer cell lines
experiment-description: Cell growth inhibition assay (Cell Titer Glo, 72 h, 9 doses; GI50, TGI, LC50)
Type: cell-based, human
settings: Homo sapiens, HCC1428, cell line HCC1428; read-out: GI50 (converted)
Field: label. Allowed values: criterion met (GI50 < 20 µM) or criterion not met (GI50 >= 20 µM).

CCN(CC)CCCCNc1ncc2cc(-c3cc(OC)cc(OC)c3)c(NC(=O)NC(C)(C)C)nc2n1 = criterion met

q: hey, is GI50 for CCNCCCNC/C=C\CNCCCNCC lower than 20 µM or not?
a: criterion not met

---

System: panel of 55 breast cancer cell lines
experiment-description: Cell growth inhibition assay (Cell Titer Glo, 72 h, 9 doses; GI50, TGI, LC50)
Assay type: cell-based, human
settings: cell line HCC2185; value is the negative log10 of mol/L
measured-attribute: GI50
Answers are plain numbers.

As a guide, the following entries are already answered.
COc1cccc(-c2cc(=O)c3ccccc3o2)c1N = 4.55
C=CCNC1=C2C[C@@H](C)C[C@H](OC)[C@H](O)[C@@H](C)/C=C(\C)[C@H](OC(N)=O)[C@@H](OC)/C=C\C=C(/C)C(=O)NC(=CC1=O)C2=O = 6.93
Cc1cc(C(=O)N2CCN(c3cccc(Cl)c3)CC2)n(-c2ccccc2)n1 [XRP44X] = 6.63
CC(/C=C/C(=O)NO)=C\[C@@H](C)C(=O)c1ccc(N(C)C)cc1 = 4.79
Oc1cc(-c2nc(-c3ccccc3)[nH]c2-c2ccncc2)ccc1Cl = 4.42

Could I get GI50 for every one of these entries?
1. CCNCCCCNCCCCNCCCCNCCCCNCC=CCNCCCCNCCCCNCCCCNCCCCNCC.Cl.Cl.Cl.Cl.Cl.Cl.Cl.Cl.Cl.Cl (stereo in doubt)
2. CC(=O)Nc1cccc(-n2c(=O)n(C3CC3)c(=O)c3c(Nc4ccc(I)cc4F)n(C)c(=O)c(C)c32)c1.C[S+](C)[O-] [GSK1120212B]

a:
1: 6.60; 2: 4.78

---

System: panel of 55 breast cancer cell lines
experiment-description: Cell growth inhibition assay (Cell Titer Glo, 72 h, 9 doses; GI50, TGI, LC50)
Format: cell-based, human
settings: Homo sapiens, ZR-75B, cell line ZR75B; read-out: GI50 (converted)
measured-attribute: GI50

Cc1[nH]c2ccccc2c1CCNCc1ccc(/C=C/C(=O)NO)cc1 = 0.0832 µM
CCNCCCNC/C=C\CNCCCNCC = 562 µM
Cc1cncc2cccc(S(=O)(=O)N3CCCN(C(=O)CN)C[C@@H]3C)c12 = 66.1 µM
Cn1cnc2c(F)c(Nc3ccc(Br)cc3Cl)c(C(=O)NOCCO)cc21 = 50.1 µM

Could I get GI50 for every one of these entries?
1. NS(=O)(=O)OC[C@@H]1C[C@@H](n2ccc3c(N[C@H]4CCc5ccccc54)ncnc32)C[C@@H]1O
2. COC1=C2C[C@@H](C)C[C@H](OC)[C@H](O)[C@@H](C)/C=C(\C)[C@H](OC(N)=O)[C@@H](OC)/C=C\C=C(/C)C(=O)NC(=CC1=O)C2=O

a:
1: 0.145 µM; 2: 0.0933 µM

---

System: panel of 55 breast cancer cell lines
experiment-description: Cell growth inhibition assay (Cell Titer Glo, 72 h, 9 doses; GI50, TGI, LC50)
Assay type: cell-based, human
settings: LY2 cell line; censored GI50 values; value is the negative log10 of mol/L
Kindly state GI50 for each of the entries shown.

As a guide, the following entries are already answered.
O=c1[nH]c(=O)n([C@H]2C[C@H](O)[C@@H](CO)O2)cc1F = 5.01
CCNCCCCNCCCCNCCCCNCCCCNCC=CCNCCCCNCCCCNCCCCNCCCCNCC.Cl.Cl.Cl.Cl.Cl.Cl.Cl.Cl.Cl.Cl (stereo in doubt) = 5.18

Could I get GI50 for every one of these entries?
1. Cc1cc(C(=O)N2CCN(c3cccc(Cl)c3)CC2)n(-c2ccccc2)n1 [XRP44X]
2. C=CCNC1=C2C[C@@H](C)C[C@H](OC)[C@H](O)[C@@H](C)/C=C(\C)[C@H](OC(N)=O)[C@@H](OC)/C=C\C=C(/C)C(=O)NC(=CC1=O)C2=O

a:
6.08
6.97

---

Test system: panel of 55 breast cancer cell lines
experiment-description: Cell growth inhibition assay (Cell Titer Glo, 72 h, 9 doses; GI50, TGI, LC50)
Assay type: cell-based, human
settings: cell line HCC202; value is the negative log10 of mol/L
Field: label. Allowed values: true (1) (GI50 < 6) or false (0) (GI50 >= 6).

q: hey, is GI50 for CCNCCCCNCCCCNCCCCNCCCCNCC=CCNCCCCNCCCCNCCCCNCCCCNCC.Cl.Cl.Cl.Cl.Cl.Cl.Cl.Cl.Cl.Cl (stereo in doubt) lower than 6 or not?
a: false (0)

q: hey, is GI50 for N.N.O=C([O-])C1(C(=O)[O-])CCC1.[Pt+2] lower than 6 or not?
a: true (1)

q: hey, is GI50 for CC(C)Oc1ccc(C(=O)N[C@H](CNC(=O)CN(C)C)Cc2ccc(-c3cn4cccc([C@H](C)O)c4n3)cc2)cc1Cl lower than 6 or not?
a: false (0)

q: hey, is GI50 for NC(=O)Nc1sc(-c2ccc(F)cc2)cc1C(N)=O lower than 6 or not?
a: true (1)

q: hey, is GI50 for CC(=O)Nc1cccc(-n2c(=O)n(C3CC3)c(=O)c3c(Nc4ccc(I)cc4F)n(C)c(=O)c(C)c32)c1.C[S+](C)[O-] [GSK1120212B] lower than 6 or not?
a: false (0)

q: hey, is GI50 for C=CCNC1=C2C[C@@H](C)C[C@H](OC)[C@H](O)[C@@H](C)/C=C(\C)[C@H](OC(N)=O)[C@@H](OC)/C=C\C=C(/C)C(=O)NC(=CC1=O)C2=O lower than 6 or not?
a: false (0)

---

Test system: panel of 55 breast cancer cell lines
experiment-description: Cell growth inhibition assay (Cell Titer Glo, 72 h, 9 doses; GI50, TGI, LC50)
Type: cell-based, human
settings: cell line MDAMB415; value is the negative log10 of mol/L
measured-attribute: GI50

As a guide, the following entries are already answered.
NS(=O)(=O)c1ccc(Nc2nc(OCC3CCCCC3)c3[nH]cnc3n2)cc1 = 4.46
Cc1cc(Nc2cc(N3CCN(C)CC3)nc(Sc3ccc(NC(=O)C4CC4)cc3)n2)n[nH]1 = 4.86
CC(C)(C)c1cc(C=C(C#N)C#N)cc(Br)c1O = 4.48
N.N.O=C([O-])C1(C(=O)[O-])CCC1.[Pt+2] = 3.73
COc1cc2ncnc(Nc3cccc(Cl)c3)c2cc1OC = 3.78
COc1ccc(C2=N[C@@H](c3ccc(Cl)cc3)[C@@H](c3ccc(Cl)cc3)N2C(=O)N2CCNC(=O)C2)c(OC(C)C)c1 = 4.59
O=c1[nH]c2ccccc2n1C1CCN(Cc2ccc(-c3nc4cc5[nH]cnc5cc4nc3-c3ccccc3)cc2)CC1 = 4.95

Please examine the following record next.
q: So what does the record say about GI50 for O=C1C(Cl)=C(NCCN2CCOCC2)C(=O)c2ncccc21 ?
a: 5.59

---

Kindly state log10 GI50 for each of the entries shown.
Tested on: panel of 55 breast cancer cell lines
experiment-description: Cell growth inhibition assay (Cell Titer Glo, 72 h, 9 doses; GI50, TGI, LC50)
Type: cell-based, human
settings: Homo sapiens, cell line HCC2185; read-out: GI50 (converted)
Log scale reminder: GI50 in nM, then log10 taken.

As a guide, the following entries are already answered.
CC(=O)O[C@@]12CO[C@@H]1C[C@H](O)[C@@]1(C)C(=O)[C@H](O)C3=C(C)[C@@H](OC(=O)[C@H](O)[C@@H](NC(=O)OC(C)(C)C)c4ccccc4)C[C@@](O)([C@@H](OC(=O)c4ccccc4)[C@H]21)C3(C)C = 0.48
COc1cccc2c1C(=O)c1c(O)c3c(c(O)c1C2=O)C[C@@](O)(C(=O)CO)C[C@@H]3O[C@H]1C[C@H](N)[C@@H](O)[C@H](C)O1 [Epirubicin] = 2.10
Cn1cnc2c(F)c(Nc3ccc(Br)cc3Cl)c(C(=O)NOCCO)cc21 = 4.70
COc1cc([C@@H]2c3cc4c(cc3[C@@H](O[C@@H]3O[C@@H]5CO[C@@H](C)O[C@H]5[C@H](O)[C@H]3O)[C@H]3COC(=O)[C@H]23)OCO4)cc(OC)c1O [Etoposide] = 3.89
COC1=C2C[C@@H](C)C[C@H](OC)[C@H](O)[C@@H](C)/C=C(\C)[C@H](OC(N)=O)[C@@H](OC)/C=C\C=C(/C)C(=O)NC(=CC1=O)C2=O = 1.26

Could I get log10 GI50 for every one of these entries?
1. COc1cccc2c1C(=O)c1c(O)c3c(c(O)c1C2=O)C[C@@](O)(C(=O)CO)C[C@@H]3O[C@H]1C[C@H](N)[C@H](O)[C@H](C)O1
2. COc1cc(Nc2c(C#N)cnc3cc(OCCCN4CCN(C)CC4)c(OC)cc23)c(Cl)cc1Cl
3. C/C(=C\c1csc(C)n1)[C@@H]1C[C@@H]2O[C@]2(C)CCC[C@H](C)[C@H](O)[C@@H](C)C(=O)C(C)(C)[C@@H](O)CC(=O)N1 [Ixabepilone]
4. CCN(CC)CCCCNc1ncc2cc(-c3cc(OC)cc(OC)c3)c(NC(=O)NC(C)(C)C)nc2n1
5. COc1cc2ncnc(Nc3ccc(F)c(Cl)c3)c2cc1OCCCN1CCOCC1

a:
1.84
3.70
3.96
4.47
3.97

Could I get log10 GI50 for every one of these entries?
1. CO[C@H]1C[C@@H]2CC[C@@H](C)[C@@](O)(O2)C(=O)C(=O)N2CCCC[C@H]2C(=O)O[C@H]([C@H](C)C[C@@H]2CC[C@@H](O)[C@H](OC)C2)CC(=O)[C@H](C)/C=C(\C)[C@@H](O)[C@@H](OC)C(=O)[C@H](C)C[C@H](C)/C=C/C=C/C=C/1C
2. Cc1ccc(C(=O)N(CCCN)[C@@H](c2nc3cc(Cl)ccc3c(=O)n2Cc2ccccc2)C(C)C)cc1

a:
0.21
1.47
